- Test system: NCI-H520
- experimental details: relative viability (nuclei count vs DMSO), 5 days (fraction); higher = more cells survive
- condition label: first compound 50 µM
Please provide measured relative viability for the entries that follow.
Answers are plain numbers.

Would you mind telling me what relative viability value was observed for O=C(O)CCCCC(CCSCc1ccccc1)SCc1ccccc1 (stereo not given) [CPI-613] + C[C@]1(O)C[C@@H](c2nc(-c3ccc4ccc(-c5ccccc5)nc4c3)c3c(N)nccn32)C1 [Linsitinib] (partner 1 µM) ?
1.03

Give relative viability for each listed item.
1. O=C(O)CCCCC(CCSCc1ccccc1)SCc1ccccc1 (stereo not given) [CPI-613] + CC(=O)Nc1cccc(-n2c(=O)n(C3CC3)c(=O)c3c(Nc4ccc(I)cc4F)n(C)c(=O)c(C)c32)c1 [Trametinib] (partner 0.02 µM)
2. O=C(O)CCCCC(CCSCc1ccccc1)SCc1ccccc1 (stereo not given) [CPI-613] + CCNC(=O)c1noc(-c2cc(C(C)C)c(O)cc2O)c1-c1ccc(CN2CCOCC2)cc1 [Luminespib] (partner 0.01 µM)
3. O=C(O)CCCCC(CCSCc1ccccc1)SCc1ccccc1 (stereo not given) [CPI-613] + O=C(CCCCCCC(=O)Nc1ccccc1)NO [Vorinostat] (partner 1 µM)
4. O=C(O)CCCCC(CCSCc1ccccc1)SCc1ccccc1 (stereo not given) [CPI-613] + Nc1nc2[nH]cc(CCc3ccc(C(=O)N[C@@H](CCC(=O)O)C(=O)O)cc3)c2c(=O)[nH]1 [Pemetrexed] (partner 0.2 µM)

[0.552, 0.214, 0.657, 0.527]

* * *

Please provide measured relative viability for the entries that follow.
- System: LU99A
- experimental details: relative viability (nuclei count vs DMSO), 5 days (fraction); higher = more cells survive
- condition label: first compound 0.8 µM
Answers are plain numbers.

Look over these answered cases.
Would you mind telling me what relative viability value was observed for Cc1cnc(-c2cnc(NCCNc3ccc(C#N)cn3)nc2-c2ccc(Cl)cc2Cl)[nH]1 + CC(C)C[C@H](NC(=O)[C@H](Cc1ccccc1)NC(=O)c1cnccn1)B(O)O [Bortezomib] (partner 0.002 µM) ?
1.29

Entry O=c1[nH]c2ccccc2n1C1CCN(CCCC(c2ccc(F)cc2)c2ccc(F)cc2)CC1 [Pimozide] + CS(=O)(=O)CCNCc1ccc(-c2ccc3ncnc(Nc4ccc(OCc5cccc(F)c5)c(Cl)c4)c3c2)o1 [Lapatinib] (partner 2 µM) please
0.757

Entry Cc1cnc(-c2cnc(NCCNc3ccc(C#N)cn3)nc2-c2ccc(Cl)cc2Cl)[nH]1 + CC1(C)CCC(c2ccc(Cl)cc2)=C(CN2CCN(c3ccc(C(=O)NS(=O)(=O)c4ccc(N[C@H](CCN5CCOCC5)CSc5ccccc5)c(S(=O)(=O)C(F)(F)F)c4)cc3)CC2)C1 [Navitoclax] (partner 0.5 µM) please
0.794

Next item in the queue.
Would you mind telling me what relative viability value was observed for Cc1cnc(-c2cnc(NCCNc3ccc(C#N)cn3)nc2-c2ccc(Cl)cc2Cl)[nH]1 + COc1cccc2cc(-c3nc([C@H]4CC[C@H](C(=O)O)CC4)n4ncnc(N)c34)[nH]c12 [OSI-027] (partner 0.5 µM) ?
0.327

* * *

Please provide measured relative viability for the entries that follow.
- Test system: NCI-H1651
- experimental details: relative viability (nuclei count vs DMSO), 5 days (fraction); higher = more cells survive
- condition label: first compound 4 µM
Give bare numbers.

Would you mind telling me what relative viability value was observed for Cc1sc2c(c1C)C(c1ccc(Cl)cc1)=N[C@@H](CC(=O)OC(C)(C)C)c1nnc(C)n1-2 [JQ1] + Nc1nc2[nH]cc(CCc3ccc(C(=O)N[C@@H](CCC(=O)O)C(=O)O)cc3)c2c(=O)[nH]1 [Pemetrexed] (partner 0.2 µM) ?
0.358

Entry Cc1sc2c(c1C)C(c1ccc(Cl)cc1)=N[C@@H](CC(=O)OC(C)(C)C)c1nnc(C)n1-2 [JQ1] + NC(=O)Nc1cc(-c2cccc(F)c2)sc1C(=O)N[C@H]1CCCNC1 [AZD7762] (partner 0.2 µM) please
0.419

Entry Cc1sc2c(c1C)C(c1ccc(Cl)cc1)=N[C@@H](CC(=O)OC(C)(C)C)c1nnc(C)n1-2 [JQ1] + CS(=O)(=O)N1CCN(Cc2cc3nc(-c4cccc5[nH]ncc45)nc(N4CCOCC4)c3s2)CC1 [Pictilisib] (partner 1 µM) please
0.245

Give relative viability for each listed item.
1. Cc1sc2c(c1C)C(c1ccc(Cl)cc1)=N[C@@H](CC(=O)OC(C)(C)C)c1nnc(C)n1-2 [JQ1] + CCNC(=O)c1noc(-c2cc(C(C)C)c(O)cc2O)c1-c1ccc(CN2CCOCC2)cc1 [Luminespib] (partner 0.01 µM)
2. Cc1sc2c(c1C)C(c1ccc(Cl)cc1)=N[C@@H](CC(=O)OC(C)(C)C)c1nnc(C)n1-2 [JQ1] + Cc1nc(Nc2ncc(C(=O)Nc3c(C)cccc3Cl)s2)cc(N2CCN(CCO)CC2)n1 [Dasatinib] (partner 0.075 µM)
3. Cc1sc2c(c1C)C(c1ccc(Cl)cc1)=N[C@@H](CC(=O)OC(C)(C)C)c1nnc(C)n1-2 [JQ1] + C[C@]1(O)C[C@@H](c2nc(-c3ccc4ccc(-c5ccccc5)nc4c3)c3c(N)nccn32)C1 [Linsitinib] (partner 1 µM)

0.375
0.221
0.468

Would you mind telling me what relative viability value was observed for Cc1sc2c(c1C)C(c1ccc(Cl)cc1)=N[C@@H](CC(=O)OC(C)(C)C)c1nnc(C)n1-2 [JQ1] + O=C(c1cc(Cc2n[nH]c(=O)c3ccccc23)ccc1F)N1CCN(C(=O)C2CC2)CC1 [Olaparib] (partner 8 µM) ?
0.136

* * *

- Tested on: NCI-H1734
- experimental details: relative viability (nuclei count vs DMSO), 5 days (fraction); higher = more cells survive
- condition label: first compound 0.0002 µM
measure name: relative viability
Numbers only.

Would you mind telling me what relative viability value was observed for CC(=O)O[C@@]12CO[C@@H]1C[C@H](O)[C@@]1(C)C(=O)[C@H](O)C3=C(C)[C@@H](OC(=O)[C@H](O)[C@@H](NC(=O)OC(C)(C)C)c4ccccc4)C[C@@](O)([C@@H](OC(=O)c4ccccc4)[C@H]21)C3(C)C [Docetaxel] + CC(C)C[C@H](NC(=O)[C@H](Cc1ccccc1)NC(=O)c1cnccn1)B(O)O [Bortezomib] (partner 0.002 µM) ?
0.865

* * *

- Tested on: COR-L 105
- experimental details: relative viability (nuclei count vs DMSO), 5 days (fraction); higher = more cells survive
- condition label: first compound 0.8 µM
Entries get a class label from measured relative viability. See ranges: low class (below 0.6), middle class (0.6 to below 0.7), high class (0.7 or more)

Example results:
// bin(item) where item = O=c1[nH]c2ccccc2n1C1CCN(CCCC(c2ccc(F)cc2)c2ccc(F)cc2)CC1 [Pimozide] + Cc1cc(Nc2cc(N3CCN(C)CC3)nc(Sc3ccc(NC(=O)C4CC4)cc3)n2)n[nH]1 [Tozasertib] (partner 0.1 µM)
low class

Entry O=c1[nH]c2ccccc2n1C1CCN(CCCC(c2ccc(F)cc2)c2ccc(F)cc2)CC1 [Pimozide] + CS(=O)(=O)CCNCc1ccc(-c2ccc3ncnc(Nc4ccc(OCc5cccc(F)c5)c(Cl)c4)c3c2)o1 [Lapatinib] (partner 2 µM) please
low class

Further cases:
// bin(item) where item = O=c1[nH]c2ccccc2n1C1CCN(CCCC(c2ccc(F)cc2)c2ccc(F)cc2)CC1 [Pimozide] + CC1(C)CCC(c2ccc(Cl)cc2)=C(CN2CCN(c3ccc(C(=O)NS(=O)(=O)c4ccc(N[C@H](CCN5CCOCC5)CSc5ccccc5)c(S(=O)(=O)C(F)(F)F)c4)cc3)CC2)C1 [Navitoclax] (partner 0.5 µM)
middle class

Entry O=c1[nH]c2ccccc2n1C1CCN(CCCC(c2ccc(F)cc2)c2ccc(F)cc2)CC1 [Pimozide] + Nc1ncn([C@H]2C[C@H](O)[C@@H](CO)O2)c(=O)n1 [Decitabine] (partner 2 µM) please
middle class

Entry Cc1cnc(-c2cnc(NCCNc3ccc(C#N)cn3)nc2-c2ccc(Cl)cc2Cl)[nH]1 + Cc1nc(Nc2ncc(C(=O)Nc3c(C)cccc3Cl)s2)cc(N2CCN(CCO)CC2)n1 [Dasatinib] (partner 0.075 µM) please
low class

Entry O=c1[nH]c2ccccc2n1C1CCN(CCCC(c2ccc(F)cc2)c2ccc(F)cc2)CC1 [Pimozide] + Nc1nc2[nH]cc(CCc3ccc(C(=O)N[C@@H](CCC(=O)O)C(=O)O)cc3)c2c(=O)[nH]1 [Pemetrexed] (partner 0.2 µM) please
high class

Entry Cc1cnc(-c2cnc(NCCNc3ccc(C#N)cn3)nc2-c2ccc(Cl)cc2Cl)[nH]1 + CC1(C)CCC(c2ccc(Cl)cc2)=C(CN2CCN(c3ccc(C(=O)NS(=O)(=O)c4ccc(N[C@H](CCN5CCOCC5)CSc5ccccc5)c(S(=O)(=O)C(F)(F)F)c4)cc3)CC2)C1 [Navitoclax] (partner 0.5 µM) please
high class

Entry O=c1[nH]c2ccccc2n1C1CCN(CCCC(c2ccc(F)cc2)c2ccc(F)cc2)CC1 [Pimozide] + CCNC(=O)c1noc(-c2cc(C(C)C)c(O)cc2O)c1-c1ccc(CN2CCOCC2)cc1 [Luminespib] (partner 0.01 µM) please
middle class
